Test system: INS1
assay-name: INS-1E survival protection against cytokine death – cell-based, luminescence, retest, dose response (AID 449756);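 further: cell death triggered by IL-1 beta plus TNF-alpha plus IFN-gamma mixture; protective hits raise ATP signal compared with cytokine alone wells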
Type: functional
particulars: Rattus norvegicus
Activity calls are given as the source filed them.
We begin with a simple list: items and their reported AC50.

molecule: COc1ccccc1N1CCN(c2ncc(C(=O)N3CCN(c4cccc(Cl)c4)CC3)c3ccccc23)CC1
target-of-assay: INS1
AC50: 3.93 µM (active)
--
molecule: CCC(O)C1CCN(C(=O)c2cc(COc3ccc4ncccc4c3)on2)CC1 (configuration not stated)
target-of-assay: INS1
AC50: 3.38 µM (active)
--
molecule: CC[C@@H](C(=O)[C@@H](C)[C@@H](O)[C@H](C)CCc1ccc(C)c(O)c1C(=O)O)[C@H]1O[C@](CC)([C@H]2CC[C@](O)(CC)[C@H](C)O2)C[C@@H]1C [LASALOCID A SODIUM]
target-of-assay: INS1
AC50: 2.64 µM (active)
--
molecule: N#Cc1ccc(NC(=O)Nc2ccc(Cl)cc2)cc1
target-of-assay: INS1
AC50: 4 µM (active)
--
molecule: O=[N+]([O-])c1c(Nc2ccccn2)cc(Cl)c2nonc12
target-of-assay: INS1
AC50: 6.13 µM (active)
--
molecule: CCS(=O)(=O)c1ncc(Cl)c(C(=O)Nc2ccccc2OC)n1
target-of-assay: INS1
AC50: 38.9 µM (active)
--
molecule: CN(Cc1cccnc1)C(=O)c1cc(COc2ccc3ncccc3c2)on1
target-of-assay: INS1
AC50: 3.92 µM (active)

----------
target-of-assay: UniProt P9WHJ3
Sequence (P9WHJ3 whole entry): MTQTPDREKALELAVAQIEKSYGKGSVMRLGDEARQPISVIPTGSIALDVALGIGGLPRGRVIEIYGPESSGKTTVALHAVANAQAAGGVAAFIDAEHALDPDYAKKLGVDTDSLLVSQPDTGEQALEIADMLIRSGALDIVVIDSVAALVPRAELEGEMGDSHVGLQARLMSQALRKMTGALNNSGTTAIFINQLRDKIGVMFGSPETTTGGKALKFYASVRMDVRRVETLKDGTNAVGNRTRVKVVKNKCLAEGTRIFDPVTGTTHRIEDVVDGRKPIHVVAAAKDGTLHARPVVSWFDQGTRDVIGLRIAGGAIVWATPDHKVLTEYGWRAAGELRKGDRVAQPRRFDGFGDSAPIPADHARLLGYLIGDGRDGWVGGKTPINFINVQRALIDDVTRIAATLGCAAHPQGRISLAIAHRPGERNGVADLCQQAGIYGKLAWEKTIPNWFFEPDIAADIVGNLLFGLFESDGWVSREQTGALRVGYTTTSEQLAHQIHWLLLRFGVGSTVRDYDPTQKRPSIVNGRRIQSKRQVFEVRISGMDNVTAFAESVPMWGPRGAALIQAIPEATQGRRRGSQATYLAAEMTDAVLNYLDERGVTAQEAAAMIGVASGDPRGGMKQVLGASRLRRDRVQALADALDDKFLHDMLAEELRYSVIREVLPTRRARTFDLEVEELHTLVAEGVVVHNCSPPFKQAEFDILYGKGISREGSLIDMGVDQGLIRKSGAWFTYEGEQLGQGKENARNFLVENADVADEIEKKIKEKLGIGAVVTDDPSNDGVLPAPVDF
assay-name: Fluorescence Cell-Free Homogeneous Dose Retest to Identify Inhibitors of RecA-Intein Splicing Activity. [Related pubchem assays (depositor defined):AID2097, AID2223, AID489010, AID492950]
Type: functional
Activity calls are given as the source filed them.

molecule: Cc1nn(C(=O)c2cccnc2)c(C)c1Sc1ccc(Br)cc1
EC50: 18.7 µM (active)
//
molecule: CCCCn1c(NS(=O)(=O)c2ccc(C)cc2)c(S(=O)(=O)c2ccccc2)c2nc3ccccc3nc21
EC50: > 380 µM (inconclusive)
//
molecule: Cc1ccc(C(=O)NC2(O)C(=O)c3ccccc3C2=O)cc1C
EC50: 15.9 µM (active)
//
molecule: CCOC(=O)c1ccc(N2C(=O)c3[nH]nc(-c4ccco4)c3C2c2ccc([N+](=O)[O-])cc2)cc1 (stereo not given)
EC50: 56.2 µM (active)
//
molecule: Cc1ccc(C(c2cc(Cl)c3cccnc3c2O)N2CCN(C)CC2)cc1 (stereo not given)
EC50: 1.96 µM (active)

Reference source: ChEMBL document CHEMBL1201862
